Reference source: patent US20050154230A1

I'd be grateful if you could share measured pIC50 for these entries.
Molecular target: human VR1 (Homo sapiens, UniProt Q8NER1)
Construct: expressed in transfected cells
Sequence (Q8NER1 whole entry): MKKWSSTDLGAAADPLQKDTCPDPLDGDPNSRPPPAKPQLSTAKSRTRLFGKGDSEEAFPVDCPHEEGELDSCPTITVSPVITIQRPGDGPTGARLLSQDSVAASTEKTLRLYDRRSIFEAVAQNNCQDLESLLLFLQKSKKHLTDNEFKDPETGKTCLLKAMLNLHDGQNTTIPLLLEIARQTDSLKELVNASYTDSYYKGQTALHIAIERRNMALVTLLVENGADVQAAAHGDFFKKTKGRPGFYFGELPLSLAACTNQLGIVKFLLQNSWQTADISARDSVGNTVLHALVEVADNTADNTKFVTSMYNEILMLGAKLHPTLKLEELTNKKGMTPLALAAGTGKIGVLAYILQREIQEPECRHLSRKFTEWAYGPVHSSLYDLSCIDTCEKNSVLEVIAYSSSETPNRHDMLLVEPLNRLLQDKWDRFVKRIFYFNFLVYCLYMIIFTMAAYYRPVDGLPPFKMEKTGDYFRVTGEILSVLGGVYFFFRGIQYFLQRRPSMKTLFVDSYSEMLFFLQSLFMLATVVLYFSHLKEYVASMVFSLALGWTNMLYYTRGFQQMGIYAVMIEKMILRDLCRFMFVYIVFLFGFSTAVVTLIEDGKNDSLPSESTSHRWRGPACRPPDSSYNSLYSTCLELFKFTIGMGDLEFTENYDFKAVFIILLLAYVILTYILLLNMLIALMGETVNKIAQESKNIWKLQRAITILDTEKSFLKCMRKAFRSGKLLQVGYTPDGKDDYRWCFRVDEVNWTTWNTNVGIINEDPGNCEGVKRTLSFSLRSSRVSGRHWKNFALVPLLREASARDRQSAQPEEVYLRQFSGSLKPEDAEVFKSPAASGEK
Experiment: Capsaicin-induced Ca2+ influx in the human VR1-transfected CHO cell line (Assay 1)
Format: cell-based
Details: human VR1-CHOluc9aeq cells, 10 nM capsaicin; compound purity about 40 to 90%; read-out: hVR1 class
Excerpt: [Measurement of Capsaicin-Induced Ca^2+ Influx in the Human VR1-Transfected CHO Cell Line] (Assay 1) (1) Establishment of the Human VR1-CHOluc9aeq Cell Line The cloned hVR1 cDNA was constructed with pcDNA3 vector and transfected into a CHOluc9aeq cell line. The cell line contains aequorin and CRE-luciferase reporter genes as read-out signals. […]
pIC50: −log10 of the molar value.

Worked cases, pIC50 given:
CN(C)S(=O)(=O)c1ccc2c(c1)CN(C(=O)Nc1ccc(Cl)c(C(F)(F)F)c1)CC2 [Example 86]; 6.00 to 6.30
O=C(Nc1cccc(-c2ccccc2Cl)c1)Nc1ccc(Cl)cc1CCO [Example 245]; 6.30 to 7.00
O=C(Nc1cccc(-c2cccc(C(F)(F)F)c2)c1)Nc1ccccc1CCO [Example 238]; > 7.00

Working through the 2 compounds below one at a time, give pIC50 for each.
1. COc1ccc(NC(=O)Nc2ccccc2CCO)c(OC)c1 [Example 150]
2. O=C(Nc1cccc(-c2cccc(OC(F)(F)F)c2)c1)Nc1ccccc1CCO [Example 239]

1. 6.00 to 6.30
2. > 7.00

###

Molecular target: human VR1 (Homo sapiens, UniProt Q8NER1)
Construct: expressed in transfected cells
Assay: Capsaicin-induced Ca2+ influx in the human VR1-transfected CHO cell line (Assay 1)
Assay type: cell-based
Settings: human VR1-CHOluc9aeq cells, 10 nM capsaicin; compound purity about 40 to 90%; read-out: hVR1 class
From the text: [Measurement of Capsaicin-Induced Ca^2+ Influx in the Human VR1-Transfected CHO Cell Line] (Assay 1) (1) Establishment of the Human VR1-CHOluc9aeq Cell Line The cloned hVR1 cDNA was constructed with pcDNA3 vector and transfected into a CHOluc9aeq cell line. The cell line contains aequorin and CRE-luciferase reporter genes as read-out signals. […]
pIC50: −log10 of the molar value.
I'd be grateful if you could share measured pIC50 for these entries.

Worked cases, pIC50 given:
O=C(NCc1ccc(Cl)c(Cl)c1)Nc1ccccc1; 6.30 to 7.00
CN(C)c1ccc(NC(=O)Nc2ccccc2CCO)cc1; 6.00 to 6.30
N#Cc1ccc(-c2ccc(NC(=O)Nc3ccccc3CCO)cc2)cc1; 6.00 to 6.30
Cc1ccc(-c2cccc(NC(=O)Nc3ccccc3CCO)c2)cc1; > 7.00
O=C(Nc1ccc(F)cc1F)Nc1ccccc1CCO; 6.00 to 6.30

Working through the 4 molecules below one at a time, give pIC50 for each.
1. O=C(Nc1ccc(Nc2ccccc2)cc1)Nc1ccccc1CCO
2. O=C(NCc1ccc(F)c(F)c1)Nc1ccccc1
3. CCOC(=O)c1cccc(NC(=O)Nc2ccccc2CCO)c1
4. COc1cccc(OC)c1-c1cccc(NC(=O)Nc2ccccc2CCO)c1

1. 6.00 to 6.30
2. 6.00 to 6.30
3. 6.30 to 7.00
4. 6.00 to 6.30

Could you share what pIC50 was measured for "CCOC(=O)c1ccc(-c2cccc(NC(=O)Nc3ccccc3CCO)c2)cc1" , tested on human VR1 (Homo sapiens, UniProt Q8NER1)? > 7.00
